- procedure.summary: Selectivity ratio of IC50 for MMP3 to IC50 for MMP13
readout.label: Ratio IC50

Study these solved cases before continuing.
• CNC(=O)[C@@H](NC(=O)c1ccc(-c2cccc(CNC(=O)c3ccnc(C(F)(F)F)n3)c2)o1)C1CC1 = 540
• CNC(=O)[C@H](NC(=O)c1ccc(-c2cccc(CNC(=O)c3ccccn3)c2)o1)C1CCCCC1 = 200

P = CNC(=O)[C@H](NC(=O)c1ccc(-c2cccc(CNC(=O)c3ccn(C)n3)c2)o1)C1CCCCC1
Q = CNC(=O)[C@H](NC(=O)c1ccc(-c2cccc(CNC(C)=O)c2)o1)C1CCCCC1
R = CNC(=O)[C@@H](NC(=O)c1ccc(-c2cccc(CNC(=O)c3ccnc(C(F)(F)F)n3)c2)o1)C1CCOCC1
Req: Arrange the 3 entries by Ratio IC50 so the values rise. Response field: labels, in requested order.
Resp: Q, P, R
(Q: 3, P: 33, R: 250)

* * *

- procedure.summary: Volume of distribution at steady state in rat at 1 mg/kg, iv
- Type: ADME, organism-based
- Design: dose 1 mg/kg, route intravenous
- conditions: in vivo, read-out: Vdss
readout.label: Vd (L/kg)
Give your result in L/kg as a bare value.

- CNC(=O)[C@@H](NC(=O)c1ccc(-c2cccc(CNC(=O)c3ccnc(C(F)(F)F)n3)c2)o1)C(C)(C)O: 0.9

Entry `CNC(=O)[C@@H](NC(=O)c1ccc(-c2cccc(CNC(=O)c3ccnc(C(F)(F)F)n3)c2)o1)C1CC1` — recorded Vd = 1.2

* * *

- procedure.summary: Aqueous solubility of the compound at pH 4.5
- Assay type: physicochemical
- conditions: aqueous medium
readout.label: solubility

// sample `CNC(=O)[C@@H](NC(=O)c1ccc(-c2cccc(CNC(=O)c3ccnc(C(F)(F)F)n3)c2)o1)C(C)(C)O` , its solubility was > 50 µg/mL

* * *

- Tested on: Liver microsomes
- procedure.summary: Metabolic stability in human liver microsomes
- Format: ADME, Microsome
readout.label: Stability (%)

* CNC(=O)[C@@H](NC(=O)c1ccc(-c2cccc(CNC(=O)c3ccnc(C(F)(F)F)n3)c2)o1)C(C)C | 70
* CNC(=O)[C@@H](NC(=O)c1ccc(-c2cccc(CNC(=O)c3cccc(C(F)(F)F)n3)c2)o1)C1CCOCC1 | 83
* CNC(=O)[C@@H](NC(=O)c1ccc(-c2cccc(CNC(=O)c3cccc(C(F)(F)F)n3)c2)o1)C(C)C | 88
* CNC(=O)[C@@H](NC(=O)c1ccc(-c2cccc(CNC(=O)c3cccc(C(F)(F)F)n3)c2)o1)C1CC1 | 60
* CNC(=O)[C@@H](NC(=O)c1ccc(-c2cccc(CNC(=O)c3ccnc(C(F)(F)F)n3)c2)o1)C1CC1 | 69

I = CNC(=O)[C@@H](NC(=O)c1ccc(-c2cccc(CNC(=O)c3cccc(C(F)(F)F)n3)c2)o1)C(C)(C)O
II = CNC(=O)[C@@H](NC(=O)c1ccc(-c2cccc(CNC(=O)c3ccnc(C(F)(F)F)n3)c2)o1)C(C)(C)O
III = CNC(=O)[C@@H](NC(=O)c1ccc(-c2cccc(CNC(=O)c3ccnc(C(F)(F)F)n3)c2)o1)C1CCOCC1
Req: Could you please sort these 3 entries by Stability from high to low? Provide the labels, sequenced as the question asks.
Resp: I, III, II
(I: 62%, III: 24%, II: 14%)
